# reported max response; entries follow
- Tested on: NIH3T3
- Measurement Protocol: Cytotoxic Profiling of Annotated Libraries Using Quantitative High-Throughput Screening (AID 1296008); note: % is set by controls: 0 for no effect and ±100 for the full control effect; nearly all actives have a fitted effect of over 60% in size
- Assay Context: Five cell lines viability, CellTiter-Glo ATP luminescence, 48-72 h; hits give low values
Inconclusive results are not listed.
Express your answer in %, writing the number without its unit.

Here is how some molecules turned out for max response.
O=C(Nc1ccccc1)c1ccc(Nc2nnc(-c3ccc(O)cc3)c3ccccc23)cc1 :: -26.5
COc1c(C)cc(NC(=O)c2nn(Cc3ccc(F)cc3)c3c2CN(C(=O)c2ccc[nH]2)C[C@]3(C)C(N)=O)cc1C :: -14
COc1cc2c(c(OC)c1CC=C(C)C)C[C@H](c1ccc(O)c(CC=C(C)C)c1O)CO2 :: -5.48

Then there is this molecule:
In: Provide one value: measured max response of C=C1C(=O)O[C@@H]2/C=C(\CO)CC/C=C(\CO)[C@H](OC(C)=O)C(OC(=O)C(C)CC)C12 (some centres undefined)
Out: -1.91

Source: PubChem BioAssay (NCATS)
